pIC50: −log10 of the molar value.
// merged dataset of pIC50 values, system = Carbonic anhydrase 9 (Homo sapiens, UniProt Q16790), multiple refs
Could you label it label 1 if measured pIC50 is 7 or higher, and label 0 otherwise?

1) O=P(O)(O)C(NS(=O)(=O)c1ccc(-c2ccc(Cl)cc2)cc1)P(=O)(O)O | label 0
2) C[C@H](NC(=O)P(=O)(O)O)C1CCCCC1 | label 0
3) O=C(NCCN1CCCCC1)P(=O)(O)O | label 0
4) O=P(O)(O)C(Nc1cccc2ccccc12)P(=O)(O)O | label 0
5) NS(=O)(=O)c1cccc(NC(=S)NC(=O)c2ccc(Cl)cc2Cl)c1 | label 1
6) Cn1c(-c2ccccc2)nc2cc(C(=O)NO)ccc21 | label 0
7) C[C@@H]1OC[C@@](O)(NC(=O)c2ccc(S(N)(=O)=O)cc2)[C@H](O)[C@H]1O | label 0
8) O=P(O)(O)C(P(=O)(O)O)S(=O)(=O)c1ccc(Br)cc1 | label 0
9) O=[N+]([O-])c1ccc(NC(P(=O)(O)O)P(=O)(O)O)cc1 | label 0
10) COc1cc(/C=C/C(=O)O)ccc1OCc1cn(-c2cccc(F)c2)nn1 | label 0
11) COc1ccccc1C(=O)NC(=S)Nc1cccc(S(N)(=O)=O)c1 | label 1
12) O=P(O)(O)C(Nc1cccc(-c2ccccc2)c1)P(=O)(O)O | label 0
13) Cn1c(-c2ccc(Cl)cc2)nc2cc(C(N)=O)ccc21 | label 0
14) O=P(O)(O)CP(=O)(O)O | label 0
15) NS(=O)(=O)c1cccc(NC(=S)NC(=O)c2ccccc2Cl)c1 | label 1
16) O=P(O)(O)C(Nc1cccc(C(F)(F)F)c1)P(=O)(O)O | label 0
17) O=P(O)(O)C(Nc1ccc(F)cc1)P(=O)(O)O | label 0
